From: paper PMC4384115

- measured-target: Pex5p-pbd (PTS1 binding domain of human Pex5p, amino acids 235–602) (Homo sapiens)
- Construct: Pex5p-pbd; amino acids 235–602; hexa-histidine (N); made in house
- measurement-protocol: Isothermal titration calorimetry of AGT proteins and PTS1 nonapeptides with Pex5p-pbd
- experimental-conditions: PTS1 nonapeptides (500 μM) titrated into Pex5p-pbd (20 μM); ITC, pH 7.4, 25 °C; means of two independent titrations
No end group written: not given here.
// reported Kd per item
Param answer (str): number followed by unit.

Reference set (3 entries):
In [3]: df
Out[3]:
          sequence_text                           measured_target  result_value
0      YQSHPRAKL [pCRA]  Pex5p-pbd (PTS1 binding domain of human Pex5p, amino acids 235–602) (Homo sapiens)        157 nM
1      YVGSLKSKL [pACO]  Pex5p-pbd (PTS1 binding domain of human Pex5p, amino acids 235–602) (Homo sapiens)         14 nM
2  YQHCPKSKL [pAGT-SKL]  Pex5p-pbd (PTS1 binding domain of human Pex5p, amino acids 235–602) (Homo sapiens)         29 nM

From here, focus on the item given below.
GET /value?item= YQHCPKKKL [pAGT] &field=Kd returns 19000 nM
